// data source = patent US8648068B2

- testTarget: human Mnk2a (Homo sapiens, UniProt Q9HBH9)
- Sequence (Q9HBH9 whole entry): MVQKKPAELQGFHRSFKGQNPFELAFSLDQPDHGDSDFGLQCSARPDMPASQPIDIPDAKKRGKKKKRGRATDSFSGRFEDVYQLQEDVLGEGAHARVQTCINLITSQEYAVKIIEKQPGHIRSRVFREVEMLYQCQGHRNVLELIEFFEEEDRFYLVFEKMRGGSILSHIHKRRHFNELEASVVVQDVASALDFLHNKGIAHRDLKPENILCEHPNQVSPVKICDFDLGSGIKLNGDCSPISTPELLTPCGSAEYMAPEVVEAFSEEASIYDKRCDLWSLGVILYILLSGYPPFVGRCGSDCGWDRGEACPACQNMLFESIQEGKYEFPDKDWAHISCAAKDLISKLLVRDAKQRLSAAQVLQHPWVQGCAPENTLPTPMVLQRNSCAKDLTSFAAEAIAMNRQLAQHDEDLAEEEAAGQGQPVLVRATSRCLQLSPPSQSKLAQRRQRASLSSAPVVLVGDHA
- experimentDescription: Mnk2a in vitro kinase assay (indirect fluorescence polarization)
- reportedConditions: GST-Mnk2a pre-activated with ERK2, 20 μM ATP, 30 μM substrate peptide; read-out: MNK2 IC50
- Method: Inhibitory potency of compounds against Mnk1, Mnk2a and other kinases was assessed with assays based on a format known to those skilled in the art as the indirect (competitive) fluorescence polarization. The assay detection system comprises a small fluorophore-labeled phospho-peptide (termed ligand) bound to a phospho-specific antibody. The product generated by the kinase reaction competes with the ligand for antibody binding. […]
measurementKind: pIC50
# pIC50: negative log10 of molar concentration; output just the value

Note to self: pIC50 recorded for Cc1c(C(=O)NCC2CCCO2)sc2ncnc(Nc3ccc(F)cc3OC3CCOCC3)c12 (stereo not shown) was 7.31

Note to self: pIC50 recorded for Cc1c(C(=O)NCC(O)CN(C)C)sc2ncnc(Nc3ccc(F)cc3OC3CCOCC3)c12 (stereo not shown) was 7.43

Note to self: pIC50 recorded for Cc1c(C(N)=O)sc2ncnc(Nc3ccc(F)cc3O[C@H]3CCCN(CC(=O)N(C)C)C3)c12 was 6.33

Note to self: pIC50 recorded for Cc1c(C(=O)N[C@H]2CC[C@H](O)CC2)sc2ncnc(Nc3ccc(F)cc3OC3CCOCC3)c12 was 7.41

---

- testTarget: human Mnk2a (Homo sapiens)
- experimentDescription: Mnk2a in vitro kinase assay (indirect fluorescence polarization)
- reportedConditions: GST-Mnk2a pre-activated with ERK2, 20 μM ATP, 30 μM substrate peptide; read-out: MNK2 IC50
Please provide measured pIC50 for the entries that follow.
# pIC50: negative log10 of molar concentration; output just the value

Note to self: pIC50 recorded for Cc1c(C(=O)NCCCN2CCCC2)sc2ncnc(Nc3ccc(F)cc3OC3CCOCC3)c12 [Example 118] was 7.54

Note to self: pIC50 recorded for Cc1c(C(=O)NCCN2CCCC2)sc2ncnc(Nc3ccc(F)cc3OC3CCOCC3)c12 [Example 209] was 7.16

Note to self: pIC50 recorded for Cc1c(C(=O)NCCF)sc2ncnc(Nc3ccc(F)cc3OC3CCCNC3)c12 (centres unmarked) [Example 18] was 7.24

Note to self: pIC50 recorded for Cc1c(C(=O)NCCOC(C)C)sc2ncnc(Nc3ccc(F)cc3OC3CCOCC3)c12 [Example 232] was 7.35

Note to self: pIC50 recorded for Cc1c(C(=O)NCCC[S+](C)[O-])sc2ncnc(Nc3cccnc3OC3CCOCC3)c12 (centres unmarked) [Compound 282] was 7.28

Note to self: pIC50 recorded for Cc1c(C(=O)NCCOCCO)sc2ncnc(Nc3ccc(F)cc3OC3CCOCC3)c12 [Example 210] was 7.22

Note to self: pIC50 recorded for Cc1c(C(=O)NCc2cnco2)sc2ncnc(Nc3ccc(F)cc3OC3CCOCC3)c12 [Example 186] was 7.52

Note to self: pIC50 recorded for Cc1c(C(N)=O)sc2ncnc(Nc3cccnc3O[C@@H]3CCOC3)c12 [Example 267] was 7.44

Note to self: pIC50 recorded for CCC(CC)CNC(=O)c1sc2ncnc(Nc3ccc(F)cc3OC3CCCNC3)c2c1C (centres unmarked) [Example 26] was 7.22

Note to self: pIC50 recorded for COC(=O)c1sc2ncnc(Nc3ccc(F)cc3O[C@H]3C[C@H]4COC(=O)N4C3)c2c1C [Example 114] was 6.26

Note to self: pIC50 recorded for Cc1c(C(=O)NCCC[S+](C)[O-])sc2ncnc(Nc3ccc(F)cc3OC3CCOCC3)c12 (centres unmarked) [Example 236] was 7.48

Note to self: pIC50 recorded for Cc1c(C(=O)NCc2cccc3ccccc23)sc2ncnc(Nc3ccc(F)cc3OC3CCCNC3)c12 (centres unmarked) [Example 58] was 7.19

Note to self: pIC50 recorded for Cc1c(C(=O)NCCCN(C)C)sc2ncnc(Nc3ccc(F)cc3O[C@H]3CCOC3)c12 [Example 108] was 7.59

Note to self: pIC50 recorded for Cc1cccc(CNC(=O)c2sc3ncnc(Nc4ccc(F)cc4OC4CCCNC4)c3c2C)c1 (centres unmarked) [Example 33] was 7.25

Note to self: pIC50 recorded for Cc1c(C(=O)NCCc2ccccn2)sc2ncnc(Nc3ccc(F)cc3OC3CCOCC3)c12 [Example 206] was 7.37

Note to self: pIC50 recorded for Cc1c(C(=O)NCCCN2CC(F)(F)C2)sc2ncnc(Nc3ccc(F)cc3OC3CCOCC3)c12 [Example 125] was 7.60

Note to self: pIC50 recorded for Cc1c(C(=O)NCCOCCO)sc2ncnc(Nc3ccc(F)cc3OC3CCCNC3)c12 (centres unmarked) [Example 50] was 7.14
